Entry source: paper PMC6906431

Assay: Sulforhodamine B (SRB) cytotoxicity assay
Type: cell-based, human
Settings: human, MRC-5 cells; log [concentration] μM -0.31
measurement_type: viability at 72 h, 0.49 µM (%)
Form entry: value (%) — number only.

// Input: C[C@]1(c2nc3c(C(N)=O)cccc3[nH]2)CCCN1 [Veliparib] . Output its viability at 72 h, 0.49 µM only.
90.8

Further cases:
// Input: Cn1c(=S)c2[nH]c(SCCN3CCOCC3)nc2n(C)c1=O [JA2131] . Output its viability at 72 h, 0.49 µM only.
100

====

Assay: Sulforhodamine B (SRB) cytotoxicity assay
Conditions: human, PC3 cells, Viability, without IR, log [concentration] μM 2.301
measurement_type: viability at 72 h, 200 µM (%)
Form entry: value (%) — number only.

// Input: COc1cccc2c1C(=O)c1c(O)c3c(c(O)c1C2=O)C[C@@](O)(C(=O)CO)C[C@@H]3O[C@H]1C[C@H](N)[C@H](O)[C@H](C)O1 . Output its viability at 72 h, 200 µM only.
13.8
